- assayProcedure: Plasma pharmacokinetics of meptazinol dicarboxylate linked prodrugs after oral gavage to cynomolgus monkeys
- Type: in vivo, cynomolgus monkey
- conditionDetails: cynomolgus monkey; oral gavage of prodrug, 1 mg meptazinol base equivalents/kg; prodrug level; BLQ = below 0.5 ng/mL
reportedMetric: Monkey Cmax (plasma prodrug levels, in brackets)

[[record]]
compound = "CCC1(c2cccc(OC(=O)CCC(=O)N3CCC[C@H]3C(=O)O)c2)CCCCN(C)C1 (stereo partly drawn) [Meptazinol-[succinyl-(S)-proline] ester]"
measvalue = "16 ng/mL"

[[record]]
compound = "CCC1(c2cccc(OC(=O)C(C)(C)CC(=O)N[C@H](C(=O)O)C(C)C)c2)CCCCN(C)C1 (some centres unmarked)"
measvalue = "100 ng/mL"

[[record]]
compound = "CCC1(c2cccc(OC(=O)/C=C\\C(=O)N[C@H](C(=O)O)C(C)C)c2)CCCCN(C)C1 (stereo partly drawn) [Meptazinol [malearyl-(S)-valine] ester]"
measvalue = "BLQ"

[[record]]
compound = "CCC1(c2cccc(OC(=O)CC(C)(C)CC(=O)Nc3ccc(C(=O)O)cc3)c2)CCCCN(C)C1 (centres unmarked)"
measvalue = "BLQ"

[[record]]
compound = "CCC1(c2cccc(OC(=O)C=CC(=O)Nc3ccc(C(=O)O)cc3)c2)CCCCN(C)C1 (centres unmarked) [Meptazinol [fumaryl-PABA] ester]"
measvalue = "BLQ"

[[record]]
compound = "CCC1(c2cccc(OC(=O)CCCC(=O)Nc3ccc(C(=O)O)cc3)c2)CCCCN(C)C1 (centres unmarked) [Meptazinol [glutaryl-PABA] ester]"
measvalue = "1.7 ng/mL"

[[record]]
compound = "CCC1(c2cccc(OC(=O)/C=C/C(=O)N[C@H](C(=O)O)C(C)C)c2)CCCCN(C)C1 (stereo partly drawn) [Meptazinol-[fumaryl-(S)-valine] ester]"
measvalue = "BLQ"

[[record]]
compound = "CCC1(c2cccc(OC(=O)c3ccccc3C(=O)N[C@@H](Cc3ccccc3)C(=O)O)c2)CCCCN(C)C1.O=C(O)C(F)(F)F (some centres unmarked)"
measvalue = "BLQ"

